We begin with a simple list: items and their reported inhibition.
- system.name: Pantothenate synthetase (Mycobacterium tuberculosis (strain ATCC 25618 / H37Rv))
- procedure.text: Coupled enzyme confirmation of inhibitors against recombinant Mtb PanC (AID 375);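 further: 0% = full reaction with vehicle and 100% = no enzyme background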
- condition.parameters: coupled enzyme assay; at 10 µM, active compounds read high
result.type: inhibition (%)

CS(=O)(=O)N1CCCC(C(=O)NCc2ccccc2Cl)C1 (stereo not given); 0
OCC#CCSc1nnc(-c2ccccc2Br)o1; 0
Cc1ccc2c(c1)[C@@H]1CN(C)CC[C@@H]1N2C(=O)Nc1cccc(C(F)(F)F)c1; 9
CC(C)N(O)C(=O)NC(C)(C)C; 6
Cc1ccc(NC(=O)COS(=O)c2ccc(C)cc2)cc1 (stereo not given); 0
Cc1c(C(=O)OCc2ccccc2)[nH]c2c1C(=O)CC(c1ccco1)C2 (stereo not given); 1
CCOC(=O)N1CCC(NC(=O)Cc2ccc(-n3c(=O)[nH]c4ccccc4c3=O)cc2)CC1; 3
Cc1c(C(=O)Nc2nnc(C(F)(F)F)s2)oc2ccccc12; 5
O=C(Nc1ccc(N2CCN(Cc3ccccc3Cl)CC2)cc1)c1cccnc1; 4
CCC(C)(C)NC(=O)CN(Cc1ccc2c(c1)OCO2)C(=O)CCC(=O)Nc1ccccn1; 3
CCCn1c(-c2ccc(F)cc2)cnc1SCC(=O)O; 0
CCN(CC)CCOc1cccc(C(C)C)c1; 4
Cc1ccc(C(C)C)c(OCCn2c(=O)oc3ccccc32)c1; 0
CCCCc1noc2c1/C(=N\O)CC(c1ccccc1)C2 (stereo not given); 3
Cc1nc2nc(SCC(=O)NCc3ccco3)nn2c(C)c1Cc1ccccc1; 0
COc1ccccc1C(=O)N1CCN=C1SCc1cccnc1; 0
Cc1nc2ccc(N3C(=O)CCC3=O)cc2[nH]1; 5
O=C(c1cnsn1)N1CCN(c2ccccn2)CC1; 0
COC(=O)c1cc2ccsc2n1CC(=O)N(C)c1ccccc1; 10
C=CCn1c(=O)c(C(=O)Nc2ccccc2C(=O)OCC)c(O)c2ccccc21; 0

---

- system.name: Pantothenate synthetase (Mycobacterium tuberculosis (strain ATCC 25618 / H37Rv)) (UniProt P9WIL5)
- Sequence (P9WIL5 whole entry, looked up): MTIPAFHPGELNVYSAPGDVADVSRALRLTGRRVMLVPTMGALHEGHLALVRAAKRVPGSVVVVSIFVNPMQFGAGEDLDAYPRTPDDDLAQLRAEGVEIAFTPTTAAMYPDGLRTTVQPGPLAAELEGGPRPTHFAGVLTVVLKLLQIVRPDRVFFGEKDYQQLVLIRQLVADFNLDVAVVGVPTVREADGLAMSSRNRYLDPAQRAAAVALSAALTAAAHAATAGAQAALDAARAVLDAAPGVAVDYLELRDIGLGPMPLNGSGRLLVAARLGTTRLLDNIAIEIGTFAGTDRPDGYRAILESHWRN
- procedure.text: Coupled enzyme confirmation of inhibitors against recombinant Mtb PanC (AID 375);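 further: 0% = full reaction with vehicle and 100% = no enzyme background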
- condition.parameters: coupled enzyme assay; at 10 µM, active compounds read high
result.type: inhibition (%)

O=C(OC1CCOC1=O)c1ccc2ccccc2n1 (stereo not given); 4
CN(C)c1cc(NC(=O)CN2CCOCC2)c2ccccc2n1; 3
CCOc1ccc(-c2nc(N)ncc2-c2ccccc2)c(O)c1; 0
Cc1ccc(CCNC(=O)C2CCCN2S(=O)(=O)c2ccc3c(c2)CCC(=O)N3)cc1 (stereo not given); 6
Cc1cc(-c2ccccc2)nc(SCc2ccc(C(=O)O)o2)n1; 0

---

- system.name: Pantothenate synthetase (Mycobacterium tuberculosis (strain ATCC 25618 / H37Rv)) (UniProt P9WIL5)
- procedure.text: Coupled enzyme confirmation of inhibitors against recombinant Mtb PanC (AID 375);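 further: 0% = full reaction with vehicle and 100% = no enzyme background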
- condition.parameters: coupled enzyme assay; at 10 µM, active compounds read high
Entries and their inhibition
result.type: inhibition (%)

O=C(O)C1CC=CCC1C(=O)NCc1ccccc1 (configuration not stated); 1
CCOC(=O)CS(=O)(=O)c1nc(-c2ccccc2)cc(C(F)(F)F)n1; 3
COc1ccc2[nH]c(=O)c(CN(C(=O)c3ccncc3)C(C)C)cc2c1; 0
COC(=O)c1sc(S(=O)(=O)NCc2cccs2)c(C(=O)OC)c1C; 0
O=C(CSc1nccn1-c1cccc(Cl)c1)NC1CCCC1; 0
CCC1SC2=NC(C)=C(C(=O)OC)C(c3ccc(C)cc3)N2C1=O (configuration not stated); 7
N#Cc1nc(-c2ccco2)oc1N1CCN(c2cccc(Cl)c2)CC1; 6

Data provenance is PubChem BioAssay.
